The reader will find reported refractive index values listed item by item below.
# Procedure Text: refractive index (Na D-line) (dimensionless)
# Conditions: 298.15 K; 101.33 kPa; Liquid; Standard Abbe refractometry
Observable: refractive index

Compound	Observable	Reported Value
CC[n+]1ccccc1C.O=S(=O)([N-]S(=O)(=O)C(F)(F)F)C(F)(F)F	refractive index	1.44789
CC[n+]1cccc(C)c1.O=S(=O)([N-]S(=O)(=O)C(F)(F)F)C(F)(F)F	refractive index	1.44355
CC[n+]1ccccc1.O=S(=O)([N-]S(=O)(=O)C(F)(F)F)C(F)(F)F [1-ethylpyridinium bis[(trifluoromethyl)sulfonyl]imide]	refractive index	1.44091
CC[n+]1ccc(C)cc1.O=S(=O)([N-]S(=O)(=O)C(F)(F)F)C(F)(F)F	refractive index	1.44412

###

# Conditions: 303.15 K; 101.33 kPa; Liquid; Sing-around technique in a fixed-path interferometer
± gives the expanded uncertainty stated by the source.
The reader will find reported speed of sound values listed item by item below.
Observable: speed of sound

Molecule	Observable	Reported Value
CC[n+]1ccccc1.O=S(=O)([N-]S(=O)(=O)C(F)(F)F)C(F)(F)F [1-ethylpyridinium bis[(trifluoromethyl)sulfonyl]imide]	speed of sound	1257.1 ± 1.5 m/s
CC[n+]1cccc(C)c1.O=S(=O)([N-]S(=O)(=O)C(F)(F)F)C(F)(F)F	speed of sound	1248.5 ± 1.5 m/s
CC[n+]1ccc(C)cc1.O=S(=O)([N-]S(=O)(=O)C(F)(F)F)C(F)(F)F	speed of sound	1252.4 ± 1.5 m/s
CC[n+]1ccccc1C.O=S(=O)([N-]S(=O)(=O)C(F)(F)F)C(F)(F)F	speed of sound	1288.5 ± 1.5 m/s

###

# Procedure Text: refractive index (Na D-line) (dimensionless)
# Conditions: 293.15 K; 101.33 kPa; Liquid; Standard Abbe refractometry
± gives the expanded uncertainty stated by the source.
The reader will find reported refractive index values listed item by item below.
Observable: refractive index

Molecule	Reported Value
CC[n+]1ccccc1.O=S(=O)([N-]S(=O)(=O)C(F)(F)F)C(F)(F)F [1-ethylpyridinium bis[(trifluoromethyl)sulfonyl]imide]	1.44227 ± 0.00037
CC[n+]1ccc(C)cc1.O=S(=O)([N-]S(=O)(=O)C(F)(F)F)C(F)(F)F	1.44562 ± 0.00037
CC[n+]1cccc(C)c1.O=S(=O)([N-]S(=O)(=O)C(F)(F)F)C(F)(F)F	1.44503 ± 0.00037
CC[n+]1ccccc1C.O=S(=O)([N-]S(=O)(=O)C(F)(F)F)C(F)(F)F	1.44938 ± 0.00037

###

# Conditions: 328.15 K; 101.33 kPa; Liquid; Vibrating tube method
The reader will find reported mass density values listed item by item below.
Observable: mass density (kg/m3)

Molecule	Observable	Reported Value
CC[n+]1ccccc1C.O=S(=O)([N-]S(=O)(=O)C(F)(F)F)C(F)(F)F	mass density	1476.54
CC[n+]1ccc(C)cc1.O=S(=O)([N-]S(=O)(=O)C(F)(F)F)C(F)(F)F	mass density	1457.52
CC[n+]1ccccc1.O=S(=O)([N-]S(=O)(=O)C(F)(F)F)C(F)(F)F [1-ethylpyridinium bis[(trifluoromethyl)sulfonyl]imide]	mass density	1506.34
CC[n+]1cccc(C)c1.O=S(=O)([N-]S(=O)(=O)C(F)(F)F)C(F)(F)F	mass density	1459.74

###

The reader will find reported viscosity values listed item by item below.
# Conditions: 308.15 K; 101.33 kPa; Liquid; Falling or rolling sphere viscometry
Observable: viscosity (mPa·s)

Compound	Reported Value
CC[n+]1cccc(C)c1.O=S(=O)([N-]S(=O)(=O)C(F)(F)F)C(F)(F)F	27.12
CC[n+]1ccccc1.O=S(=O)([N-]S(=O)(=O)C(F)(F)F)C(F)(F)F [1-ethylpyridinium bis[(trifluoromethyl)sulfonyl]imide]	28.79
CC[n+]1ccccc1C.O=S(=O)([N-]S(=O)(=O)C(F)(F)F)C(F)(F)F	49.76
CC[n+]1ccc(C)cc1.O=S(=O)([N-]S(=O)(=O)C(F)(F)F)C(F)(F)F	23.17

###

# Procedure Text: refractive index (Na D-line) (dimensionless)
# Conditions: 323.15 K; 101.33 kPa; Liquid; Standard Abbe refractometry

Compound	refractive index
CC[n+]1ccccc1.O=S(=O)([N-]S(=O)(=O)C(F)(F)F)C(F)(F)F [1-ethylpyridinium bis[(trifluoromethyl)sulfonyl]imide]	1.43339
CC[n+]1cccc(C)c1.O=S(=O)([N-]S(=O)(=O)C(F)(F)F)C(F)(F)F	1.43599
CC[n+]1ccccc1C.O=S(=O)([N-]S(=O)(=O)C(F)(F)F)C(F)(F)F	1.44037
CC[n+]1ccc(C)cc1.O=S(=O)([N-]S(=O)(=O)C(F)(F)F)C(F)(F)F	1.43641

###

The reader will find reported mass density values listed item by item below.
# Conditions: 303.15 K; 101.33 kPa; Liquid; Vibrating tube method

Compound	Units Of Measure	mass density
CC[n+]1ccccc1.O=S(=O)([N-]S(=O)(=O)C(F)(F)F)C(F)(F)F [1-ethylpyridinium bis[(trifluoromethyl)sulfonyl]imide]	kg/m3	1530.87
CC[n+]1ccccc1C.O=S(=O)([N-]S(=O)(=O)C(F)(F)F)C(F)(F)F	kg/m3	1500.5
CC[n+]1ccc(C)cc1.O=S(=O)([N-]S(=O)(=O)C(F)(F)F)C(F)(F)F	kg/m3	1481.76
CC[n+]1cccc(C)c1.O=S(=O)([N-]S(=O)(=O)C(F)(F)F)C(F)(F)F	kg/m3	1483.69

###

# Conditions: 293.15 K; 101.33 kPa; Liquid; Sing-around technique in a fixed-path interferometer
The reader will find reported speed of sound values listed item by item below.

Compound	Units Of Measure	speed of sound
CC[n+]1cccc(C)c1.O=S(=O)([N-]S(=O)(=O)C(F)(F)F)C(F)(F)F	m/s	1270.6
CC[n+]1ccccc1.O=S(=O)([N-]S(=O)(=O)C(F)(F)F)C(F)(F)F [1-ethylpyridinium bis[(trifluoromethyl)sulfonyl]imide]	m/s	1279.1
CC[n+]1ccc(C)cc1.O=S(=O)([N-]S(=O)(=O)C(F)(F)F)C(F)(F)F	m/s	1275.3
CC[n+]1ccccc1C.O=S(=O)([N-]S(=O)(=O)C(F)(F)F)C(F)(F)F	m/s	1310.9

###

# Conditions: 328.15 K; 101.33 kPa; Liquid; Falling or rolling sphere viscometry
Numbers after ± are expanded uncertainties.
The reader will find reported viscosity values listed item by item below.
Observable: viscosity

Compound	Reported Value
CC[n+]1ccc(C)cc1.O=S(=O)([N-]S(=O)(=O)C(F)(F)F)C(F)(F)F	13.26 ± 0.29 mPa·s
CC[n+]1ccccc1C.O=S(=O)([N-]S(=O)(=O)C(F)(F)F)C(F)(F)F	24.86 ± 0.54 mPa·s
CC[n+]1ccccc1.O=S(=O)([N-]S(=O)(=O)C(F)(F)F)C(F)(F)F [1-ethylpyridinium bis[(trifluoromethyl)sulfonyl]imide]	16.26 ± 0.35 mPa·s
CC[n+]1cccc(C)c1.O=S(=O)([N-]S(=O)(=O)C(F)(F)F)C(F)(F)F	15.15 ± 0.33 mPa·s

###

# Conditions: 313.15 K; 101.33 kPa; Liquid; Falling or rolling sphere viscometry
Observable: viscosity (mPa·s)

Molecule	Reported Value
CC[n+]1ccccc1.O=S(=O)([N-]S(=O)(=O)C(F)(F)F)C(F)(F)F [1-ethylpyridinium bis[(trifluoromethyl)sulfonyl]imide]	24.58
CC[n+]1ccc(C)cc1.O=S(=O)([N-]S(=O)(=O)C(F)(F)F)C(F)(F)F	19.8
CC[n+]1ccccc1C.O=S(=O)([N-]S(=O)(=O)C(F)(F)F)C(F)(F)F	41.04
CC[n+]1cccc(C)c1.O=S(=O)([N-]S(=O)(=O)C(F)(F)F)C(F)(F)F	23.06

###

The reader will find reported viscosity values listed item by item below.
# Conditions: 338.15 K; 101.33 kPa; Liquid; Falling or rolling sphere viscometry

Compound	viscosity [mPa·s]
CC[n+]1ccccc1.O=S(=O)([N-]S(=O)(=O)C(F)(F)F)C(F)(F)F [1-ethylpyridinium bis[(trifluoromethyl)sulfonyl]imide]	12.79
CC[n+]1cccc(C)c1.O=S(=O)([N-]S(=O)(=O)C(F)(F)F)C(F)(F)F	11.92
CC[n+]1ccc(C)cc1.O=S(=O)([N-]S(=O)(=O)C(F)(F)F)C(F)(F)F	10.57
CC[n+]1ccccc1C.O=S(=O)([N-]S(=O)(=O)C(F)(F)F)C(F)(F)F	18.71

###

# Conditions: 328.15 K; 101.33 kPa; Liquid; Sing-around technique in a fixed-path interferometer

Compound	speed of sound, m/s
CC[n+]1ccccc1.O=S(=O)([N-]S(=O)(=O)C(F)(F)F)C(F)(F)F [1-ethylpyridinium bis[(trifluoromethyl)sulfonyl]imide]	1204.2
CC[n+]1ccccc1C.O=S(=O)([N-]S(=O)(=O)C(F)(F)F)C(F)(F)F	1234
CC[n+]1ccc(C)cc1.O=S(=O)([N-]S(=O)(=O)C(F)(F)F)C(F)(F)F	1197.3
CC[n+]1cccc(C)c1.O=S(=O)([N-]S(=O)(=O)C(F)(F)F)C(F)(F)F	1194.9
